- test_target: GSK3α (GST-full length GSK3α) (Homo sapiens (Human))
- Sequence (P49840 whole entry): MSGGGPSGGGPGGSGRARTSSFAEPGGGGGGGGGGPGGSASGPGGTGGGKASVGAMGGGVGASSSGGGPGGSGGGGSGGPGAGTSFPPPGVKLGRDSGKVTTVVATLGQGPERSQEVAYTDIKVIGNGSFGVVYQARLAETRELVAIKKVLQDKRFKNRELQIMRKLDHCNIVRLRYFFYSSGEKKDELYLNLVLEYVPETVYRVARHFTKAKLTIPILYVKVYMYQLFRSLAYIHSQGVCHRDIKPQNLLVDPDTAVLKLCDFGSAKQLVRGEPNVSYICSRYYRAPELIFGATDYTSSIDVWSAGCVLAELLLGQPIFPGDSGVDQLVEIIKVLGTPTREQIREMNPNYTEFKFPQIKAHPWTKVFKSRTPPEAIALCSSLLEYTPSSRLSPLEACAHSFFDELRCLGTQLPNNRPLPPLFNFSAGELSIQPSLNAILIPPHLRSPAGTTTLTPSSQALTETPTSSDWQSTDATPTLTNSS
- measurement_notes: GSK3α TR-FRET kinase assay
- Type: biochemical
- condition_details: 1 nM GSK3α, 4 μM ATP, 30 minute preincubation; geometric mean; read-out: GSK3-A TR-FRET BIOCHEMICAL (TR-FRET); GMean; IC50
pIC50: −log10 of the molar value.
measure_name: pIC50

{"columns": ["compound", "pIC50"],
 "data": [
  ["CC[C@]1(c2ccccc2)C2=C(C[C@](C)(C(F)(F)F)CC2=O)Nc2n[nH]cc21", "6.00 to 7.00"],
  ["CCC1(c2cccc(-c3ccnc(C)c3)c2)C2=C(CC3(CCOC3)NC2=O)Nc2n[nH]cc21 (stereo not drawn)", "5.30 to 6.00"],
  ["CCC1(c2cccc(-c3ccnc(N4CCCCC4)c3)c2)C2=C(CC(C)(C)NC2=O)Nc2n[nH]cc21 (stereo not drawn)", "< 5.30"],
  ["CCC1(c2cccc(-c3ccnc4cc(F)c(F)cc34)c2)C2=C(CC(C)(C)NC2=O)Nc2n[nH]cc21 (stereo not drawn)", "< 5.30"],
  ["CC[C@@]1(c2ccccc2)C2=C(C[C@H](C(F)(F)F)CC2=O)Nc2n[nH]cc21", "< 5.30"]
]}

Here is the next item to consider.
// lookup pIC50 for CCC1(c2cccc(Cl)c2)C2=C(CC(C)(C)CC2=O)Nc2n[nH]c(Br)c21 (stereo not drawn) ≥ 7.00

====

- test_target: GSK3b (GST-full length GSK3b) (Homo sapiens (Human), UniProt P49841)
- Sequence (P49841 whole entry): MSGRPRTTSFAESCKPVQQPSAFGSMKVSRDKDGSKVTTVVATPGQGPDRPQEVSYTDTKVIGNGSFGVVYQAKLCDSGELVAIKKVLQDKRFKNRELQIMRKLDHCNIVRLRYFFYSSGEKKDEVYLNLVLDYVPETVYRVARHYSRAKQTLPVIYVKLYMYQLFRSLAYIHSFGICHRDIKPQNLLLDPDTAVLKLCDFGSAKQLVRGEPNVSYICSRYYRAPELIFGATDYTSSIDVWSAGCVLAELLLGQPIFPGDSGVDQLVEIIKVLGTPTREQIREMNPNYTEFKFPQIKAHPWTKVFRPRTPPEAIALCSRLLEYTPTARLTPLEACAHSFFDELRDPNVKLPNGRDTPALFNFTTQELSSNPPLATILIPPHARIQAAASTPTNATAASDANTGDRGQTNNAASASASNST
- measurement_notes: GSK3b TR-FRET kinase assay
- Type: biochemical
- condition_details: GSK3-B (TR-FRET 1 mM ATP); GMean; IC50, 1 mM ATP; geometric mean
Listed below: IC50 values for each entry.

Guide cases for IC50, answers given:
{"columns": ["molecule", "IC50"],
 "data": [
  ["CC[C@]1(c2ccccc2)C2=C(Nc3n[nH]cc31)[C@H](F)C(C)(C)CC2=O [Compound 957200]", "> 5 µM"],
  ["CCOc1ccc(S(=O)(=O)N2CCC3(CC2)C2=C(CC(C)(C)CC2=O)Nc2n[nH]cc23)cc1 [Compound 945670]", "1 to 5 µM"]
]}

Please examine the following record next.
Find the measured IC50: item CCC1(c2cccc(-c3cn(C)nc3C)c2)C2=C(Nc3n[nH]cc31)C(F)C(C)(C)CC2=O (single isomer, unassigned) [Compound 947652] , target or system GSK3b (GST-full length GSK3b) (Homo sapiens (Human), UniProt P49841). > 5 µM

====

- test_target: GSK3b (GST-full length GSK3b) (Homo sapiens (Human))
- measurement_notes: GSK3b TR-FRET kinase assay
- Format: biochemical
- condition_details: 1 nM GSK3b, 2 μM ATP, 30 minute preincubation, Table 16; read-out: GSK3-B TR-FRET BIOCHEMICAL (TR-FRET); IC50
pIC50: −log10 of the molar value.
measure_name: pIC50

{"columns": ["compound", "pIC50"],
 "data": [
  ["CCC1(c2cccc(C(F)(F)F)c2)C2=C(CCN(c3ccccn3)C2=O)Nc2n[nH]cc21 (stereo not drawn)", "6.00 to 7.00"],
  ["CCC1(c2cccc(N3CCOc4ccccc43)c2)C2=C(CC(C)(C)CC2=O)Nc2n[nH]cc21 (stereo not drawn)", "≥ 7.00"],
  ["O=C1C[C@H](C(F)(F)F)CC2=C1C1(CCOCC1)c1c[nH]nc1N2", "5.30 to 6.00"]
]}

Any idea what pIC50 came out for CCC1(c2cccc(N(C)c3cnn(C)c3)c2)C2=C(CC(C)(C)CC2=O)Nc2n[nH]cc21 (stereo not drawn) on GSK3b (GST-full length GSK3b) (Homo sapiens (Human))? 5.30 to 6.00

Continue with CC[C@]1(c2cccc(-c3cc(C)nc(C)c3)c2)C2=C(CC(C)(C)CC2=O)Nc2n[nH]cc21 < 5.30

Now the compound CCC1(c2cccc(N(C)c3cnccn3)c2)C2=C(CC(C)(C)CC2=O)Nc2n[nH]cc21 (stereo not drawn) ≥ 7.00

How about CCC1(c2cccc(C(F)F)c2)C2=C(CC(C)(C)NC2=O)Nc2n[nH]c(C(F)(F)F)c21 (stereo not drawn) ? ≥ 7.00

Request: CC[C@]1(c2cccc(-c3ccncc3F)c2)C2=C(CC(C)(C)NC2=O)Nc2n[nH]c(C(F)F)c21 ≥ 7.00

Then CCC1(c2cccc(N(C)c3cccc(F)n3)c2)C2=C(CC(C)(C)CC2=O)Nc2n[nH]cc21 (stereo not drawn) ? 6.00 to 7.00

====

Below: a set of entries, each annotated with reported pIC50.
- test_target: GSK3α (GST-full length GSK3α) (Homo sapiens (Human))
- measurement_notes: GSK3α TR-FRET kinase assay
- Format: biochemical
- condition_details: 1 nM GSK3α, 4 μM ATP, 30 minute preincubation, Table 16; read-out: GSK3-A TR-FRET BIOCHEMICAL (TR-FRET)
pIC50: −log10 of the molar value.

{"columns": ["molecule", "test_target", "pIC50"],
 "data": [
  ["CC1(C)CC(=O)C2=C(C1)Nc1n[nH]cc1C21CCC(c2ccccc2)CC1 (stereo not shown) [Compound 912084]", "GSK3α (GST-full length GSK3α) (Homo sapiens (Human))", "≥ 7.00"],
  ["CC1(C)CC(=O)C2=C(C1)Nc1n[nH]cc1C21CCN(S(=O)(=O)c2cccc(F)c2)CC1 [Compound 901466]", "GSK3α (GST-full length GSK3α) (Homo sapiens (Human))", "≥ 7.00"],
  ["C[C@@H]1C[C@@]2(CCN1S(C)(=O)=O)C1=C(CC(C)(C)CC1=O)Nc1n[nH]cc12 [Compound 918316]", "GSK3α (GST-full length GSK3α) (Homo sapiens (Human))", "≥ 7.00"],
  ["CC[C@@]1(c2ccccc2)C2=C(Nc3n[nH]cc31)[C@@H]1CC[C@@H](C1)C2=O [Compound 791268]", "GSK3α (GST-full length GSK3α) (Homo sapiens (Human))", "< 5.30"],
  ["Cc1ccc(S(=O)(=O)N2CCC3(CC2)C2=C(CC(C)(C)CC2=O)Nc2n[nH]cc23)cn1 [Compound 947482]", "GSK3α (GST-full length GSK3α) (Homo sapiens (Human))", "≥ 7.00"],
  ["CC[C@@]1(c2ccccc2)C2=C(C[C@]3(CCNC3=O)CC2=O)Nc2n[nH]cc21 [Compound 950164]", "GSK3α (GST-full length GSK3α) (Homo sapiens (Human))", "< 5.30"],
  ["CC[C@]1(c2cccc(N(C)c3cc(C)cc(C)n3)c2)C2=C(CC(C)(C)CC2=O)Nc2n[nH]cc21 [Compound 945610]", "GSK3α (GST-full length GSK3α) (Homo sapiens (Human))", "≥ 7.00"],
  ["CC1(C)CC(=O)C2=C(C1)Nc1n[nH]cc1[C@]21CCOC1 [Compound 877313]", "GSK3α (GST-full length GSK3α) (Homo sapiens (Human))", "6.00 to 7.00"],
  ["CCc1cc(N(C)c2cccc(C3(CC)C4=C(CC(C)(C)CC4=O)Nc4n[nH]cc43)c2)ccn1 (stereo not shown) [Compound 945600]", "GSK3α (GST-full length GSK3α) (Homo sapiens (Human))", "6.00 to 7.00"]
]}

Now for the molecule whose pIC50 we want.
Please report the recorded pIC50 for CC1(C)CC2=C(C(=O)[C@@H]1F)[C@]1(CC[C@H](C(F)(F)F)CC1)c1c[nH]nc1N2 [Compound 918283] . ≥ 7.00

====

- test_target: UniProt P49841
- measurement_notes: GSK3b TR-FRET kinase assay
- Assay type: biochemical
- condition_details: 1 nM GSK3b, 2 μM ATP, 30 minute preincubation; geometric mean; read-out: GSK3-B TR-FRET BIOCHEMICAL (TR-FRET); GMean; IC50
Reported IC50 values follow for various compounds

Solved cases (5 shown):
{"columns": ["compound", "IC50"],
 "data": [
  ["CCC1(c2cccc(-c3cc(C)ncc3F)c2)C2=C(CC(C)(C)NC2=O)Nc2n[nH]c(C)c21 (stereo not drawn)", "≤ 100 nM"],
  ["CCC1(c2cccc(-c3cn(C)nc3C)c2)C2=C(CC(C)(C)N(C)C2=O)Nc2n[nH]cc21 (stereo not drawn) [Compound 949005]", "≤ 100 nM"],
  ["CC[C@@]1(c2ccccc2)C2=C(C[C@@H](c3ccccc3)CC2=O)Nc2n[nH]cc21", "> 5000 nM"],
  ["CC[C@@]1(c2cccc(C(F)F)c2)C2=C(CC(C)(C)CC2=O)Nc2n[nH]cc21", "≤ 100 nM"],
  ["CC[C@]1(c2cccc(C(F)(F)F)c2)C2=C(CCN(c3ccccc3C)C2=O)Nc2n[nH]cc21", "> 5000 nM"]
]}

Continue with the compound presented below.
Find the recorded IC50 belonging to CC[C@]1(c2cccc(-c3cnn(C)c3)c2)C2=C(CC(C)(C)NC2=O)Nc2n[nH]c(C(F)(F)F)c21 and report it. 100 to 1000 nM
